Numbers sourced from paper PMC12035797.

# Tested on: human 20S proteasome
# Construct: human proteasome isolated from erythrocytes; from tissue; host or cells: human erythrocytes
# protocol-notes: h20S proteasome activity probed with FRET-type Dabcyl-EDANS substrate
# Format: biochemical
# details: 15 μM Dabcyl-EDANS, 1.0-50 μM modulator
Where a SMILES comes first, the peptide text is derived from it. [ ]: non-standard residue; d: D form. Gly(N-CH2CH2OH) = O=C(O)CNCCO; Nlys = NCCCCNCC(=O)O
test-readout: h20S stimulating capacity, Dabcyl-EDANS

Query: Give me measured h20S stimulating capacity, Dabcyl-EDANS, please, for this molecule: C[C@@H](O)[C@H](NC(=O)[C@H](Cc1ccccc1)NC(=O)[C@H](Cc1ccc(O)cc1)NC(=O)CNCCCCN)C(=O)NCC(=O)N[C@@H](CO)C(=O)N[C@@H](CCCCN)C(=O)N[C@@H](CC(=O)O)C(=O)N[C@@H](Cc1c[nH]c2ccccc12)C(=O)N[C@@H](CCCNC(=N)N)C(=O)N(CCO)CC(=O)N[C@@H](Cc1ccc(O)cc1)C(=O)N[C@@H](Cc1ccc(O)cc1)C(=O)N[C@@H](CO)C(=O)O [1c] (H-[Nlys]YFTGSKDWR[Gly(N-CH2CH2OH)]YYS-OH)
Reply: less strongly than 1

Query: For the molecule C[C@@H](O)[C@H](NC(=O)[C@H](Cc1ccccc1)NC(=O)[C@H](Cc1ccc(O)cc1)NC(=O)[C@@H](N)CCCCN)C(=O)NCC(=O)N[C@@H](CO)C(=O)N[C@@H](CCCCN)C(=O)N[C@@H](CC(=O)O)C(=O)N[C@@H](Cc1c[nH]c2ccccc12)C(=O)N[C@@H](CCCNC(=N)N)C(=O)N(CCO)CC(=O)N[C@@H](Cc1ccc(O)cc1)C(=O)N[C@@H](Cc1ccc(O)cc1)C(=O)N[C@@H](CO)C(=O)O [1b] (H-KYFTGSKDWR[Gly(N-CH2CH2OH)]YYS-OH) , give its reported h20S stimulating capacity, Dabcyl-EDANS.
Reply: less strongly than 1
